# protocol: The drug is tested on Z-018 corresponding to pig gut metagenome with ENA study accession number: PRJEB37062 and ENA sample accession number: ERS12561817 for biotransformation under anaerobic condition. The drug concentrations were measured over 9 timepoints collected between 0 and 24 hours of incubation by liquid-chromatography-coupled mass spectrometry (LC–MS); note: call rule not given here
# condition: 2 µM

molecule	Bacterial Biotransformation
COc1ccc(/C=C/C(=O)Nc2ccccc2C(=O)O)cc1OC	Compound metabolized
CN1[C@@H]2CC[C@H]1C[C@@H](OC(=O)c1c[nH]c3ccccc13)C2 [TROPISETRON]	Compound NOT metabolized
CCN(C)C(=O)Oc1cccc([C@H](C)N(C)C)c1.O=C(O)C(O)C(O)C(=O)O [RIVASTIGMINE TARTRATE]	Compound NOT metabolized
COc1ccnc(C[S+]([O-])c2nc3ccc(OC(F)F)cc3[nH]2)c1OC (stereo not given) [PANTOPRAZOLE]	Compound metabolized
Nc1nnc(-c2cccc(Cl)c2Cl)c(N)n1 [LAMOTRIGINE]	Compound NOT metabolized
